Test system: 186277-243-T-J2-PDC complex spheroid viability;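 also: spheroids exposed to drugs for 7 days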
measurement notes: Anticancer human tumor 186277-243-T-J2-PDC patient-derived colon adenocarcinoma cell line growth inhibition [GQUAD]; active = viability on the fitted dose curve at most 10% of control; inactive = the rest
run parameters: second compound 1 µM; first compound 3.16 µM
Classes used: true = active, false = inactive

- compound: "CC1COCCN1c1cc(-c2ccnn2C)c2ccnc(-c3ccn[nH]3)c2n1 (stereo not given) + Cc1cnc(CNC(=O)c2c(=O)c3ccc(N4CCCN(C)CC4)nc3n3c2sc2ccccc23)cn1"
  cat: "false"
- compound: "C=CCn1c(=O)c2cnc(Nc3ccc(N4CCN(C)CC4)cc3)nc2n1-c1cccc(C(C)(C)O)n1 + Cc1[nH]c2ccc(F)cc2c1-c1nc2c3cccnc3c3ncccc3c2[nH]1"
  cat: "true"
- compound: "CC(C)n1c(=O)n(C)c2cnc3cc(F)c(-c4ccc(OCCCN5CCCCC5)nc4)cc3c21 + Cc1cnc(CNC(=O)c2c(=O)c3ccc(N4CCCN(C)CC4)nc3n3c2sc2ccccc23)cn1"
  cat: "false"
- compound: "O=c1[nH]cc(F)c(=O)[nH]1 + CN(C)c1ccc(Nc2c3ccc(NC(=O)CCN4CCCC4)cc3nc3cc(NC(=O)CCN4CCCC4)ccc23)cc1"
  cat: "false"
- compound: "CC1COCCN1c1cc(C2(O)CC3CCC(C2)O3)c2cnn(-c3ccn[nH]3)c2n1 (stereo not given) + Cc1cnc(CNC(=O)c2c(=O)c3ccc(N4CCCN(C)CC4)nc3n3c2sc2ccccc23)cn1"
  cat: "true"
